Cited source: patent US20100233154A1

# System under test: T1, human heparanase as used in the cross species capture ELISA (human, UniProt Q9Y251 36-543, limits assumed)
# T1 construct: Captured on plates by a rabbit anti-heparanase antibody
# T1 sequence (looked up): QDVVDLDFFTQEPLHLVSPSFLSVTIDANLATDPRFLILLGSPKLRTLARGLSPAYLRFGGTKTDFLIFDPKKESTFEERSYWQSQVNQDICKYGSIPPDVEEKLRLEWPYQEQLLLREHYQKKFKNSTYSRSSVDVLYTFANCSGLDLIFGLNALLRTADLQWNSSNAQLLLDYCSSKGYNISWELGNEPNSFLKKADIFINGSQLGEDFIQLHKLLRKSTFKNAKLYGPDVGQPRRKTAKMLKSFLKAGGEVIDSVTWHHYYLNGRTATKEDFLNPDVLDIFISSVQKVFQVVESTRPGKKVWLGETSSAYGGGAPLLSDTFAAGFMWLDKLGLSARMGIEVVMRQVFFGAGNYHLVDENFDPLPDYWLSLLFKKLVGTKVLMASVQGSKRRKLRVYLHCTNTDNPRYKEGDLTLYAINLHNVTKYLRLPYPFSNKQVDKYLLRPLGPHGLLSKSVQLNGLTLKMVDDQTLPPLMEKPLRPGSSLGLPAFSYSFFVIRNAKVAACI
# Test details: cross species capture ELISA, heparanase captured by rabbit anti-heparanase antibody, exhaustive supernatant 1:5, anti-human IgG Fc detection

Binder	OD, binding to heparanase (Human) [OD units]
monoclonal antibody 16E1.1 (antibody, V domains shown, Fully human (XenoMouse) antibody) VH: QVQLQESGPGLVKPSQTLSLTCTVSGGSISSGGYYWSWIRQHPGKGLEWIGFIYYSGSTFYNPSLKSRITISVDTSKNQFSLKLSSVTAADTAVYYCARPYSSSWYGAFDIWGQGTMVTVSS VL: SYELTQPPSVSVSPGRTASITCSEDKLGNKYAYWYQQKPGQSPVLVIYQDSERPSGIPERFSGSNSGNTATLTISGTQAMDEADYYCQAWDSSTVVFGGGTKLTVL	1.08
monoclonal antibody 14H12.3 (antibody, V domains shown, Fully human (XenoMouse) antibody) VH: QVQLVESGGGVVQPGRSLRLSCAASGFTFSSYGMHWVRQAPGKGLEWVAVIWYDGSNKDYADSVKGRFTISRDNSKNTLYLQMNSLRAEDTAVYYCAREGSTSWTDYYGMDVWGQGTTVTVSS VL: SYELTQPPSVSVSPGQTARITCSGDALPKRYAYWYQQKSGQALVLVIYEDSKRPSGIPERFSGSSSGTMATLTISGAQVEDEADYYCYSIDSSGNHGVFGGGTKLTVL	0.61
monoclonal antibody 15A11.1 (antibody, V domains shown, Fully human (XenoMouse) antibody; also called ATCC PTA-9490) VH: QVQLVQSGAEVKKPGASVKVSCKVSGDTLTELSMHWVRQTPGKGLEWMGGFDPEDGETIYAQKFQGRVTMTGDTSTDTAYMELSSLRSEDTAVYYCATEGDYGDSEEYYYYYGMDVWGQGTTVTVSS VL: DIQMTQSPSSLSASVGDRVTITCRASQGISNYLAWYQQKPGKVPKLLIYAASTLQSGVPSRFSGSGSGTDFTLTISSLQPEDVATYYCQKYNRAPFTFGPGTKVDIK	0.21
monoclonal antibody 7B9.1 (antibody, V domains shown, Fully human (XenoMouse) antibody) VH: QVQLVESGGGVVQPGRSLRLSCAASGFTFSSYGMHWVRQAPGKGLEWVAVIWYDGSNKYYADSVKGRFTISRDNSKNTLYLQMNSLRAEDTAVYYCAREGAPYSSSDAFDIWGQGTMVTVSS VL: QSVLTQPPSVSGAPGQRVTISCTGSSSNIGANYDVHWYQQLPGTAPKLLIYGDNNRPSGVPDRFSGSKSGTSASLAITGLQAEDEADYYCQSYDSSLSGSVFGGGTKLTVL	0.68
monoclonal antibody 10E9.1 (antibody, V domains shown, Fully human (XenoMouse) antibody; also called mAb 10E9.1; ATCC PTA-9489) VH: QVQLVQSGAEVKKPGASVKVSCKVSGYSLTELSIHWVRQAPGKGLEWMGGFDPEDGEIIFAQKFQGRVTLTEDISLDTAYMEVSSLRSEDTAVYYCATEGHDSGDYVGYYYYGLDVWGQGTTVTVSS VL: DIQMTQSPSSLSASVGDRVTITCRASQDIRNFLAWYQQKPGKLPKLLIYAASTLQSGVPSRFSGSGSGTDFTLTISSLQPEDVASYYCQSHNSVPFTFGPGTKVDIR	0.63
monoclonal antibody 15A1.2 (antibody, V domains shown, Fully human (XenoMouse) antibody; also called ATCC PTA-9491) VH: QVQLVQSGAEVKKPGASVKVSCKVSGYTLTELSMHWVRQAPGKGLEWMGGFDPEDGETIFAQKFQGRVTMTEDTSTDTAYMELSSLRSEDTAVYYCATGLRFLEWFLWGWDVWGQGTTVTVSS VL: DIQMTQSPSSVSASVGDRVTITCRASQGISNWLAWYQQTPGKAPQLLIYGASSLQSGVPSRFSGSGSGTDFTLTISSLQPEDFATYYCQQADSFPPTFGQGTKVEIK	0.19
